Molecular target: Tubulin
Assay: Displacement of fluorescent probe (R)-(+)-ethyl 5-amino2-methyl-1,2-dihydro-3-phenylpyrido[3,4-b]pyrazin-7-ylcarbamate from tubulin colchicine binding site (unknown origin) assessed as dissociation constant
pKd: −log10 of the molar value.

{"compound": "COCc1cc2cccc(NC(C)=C3C(=O)CC(c4ccccc4)CC3=O)c2o1 (stereo unspecified)", "pKd": 8.52}

---

Measured IC50 accompanies every entry in the list below.
System: A2780
Experiment: cells
Details: Homo sapiens, A2780, 48 h

{"substance smiles": "COc1cc2cc(c1Cl)N(C)C(=O)C[C@H](OC(=O)[C@H](C)N(C)C(C)=O)[C@]1(C)O[C@H]1[C@H](C)[C@@H]1C[C@@](O)(NC(=O)O1)[C@H](OC)/C=C/C=C(\\C)C2", "measurement unit": "nM", "IC50": 0.74}
{"substance smiles": "CC[C@]1(O)C[C@@H]2CN(CCc3c([nH]c4ccccc34)[C@@](C(=O)OC)(c3cc4c(cc3OC)N(C)[C@H]3[C@@](O)(C(=O)OC)[C@H](OC(C)=O)[C@]5(CC)C=CCN6CC[C@]43[C@@H]65)C2)C1", "measurement unit": "nM", "IC50": 1.5}
{"substance smiles": "CCC[C@@H](NC(=O)[C@]1(C)CSC(/C(C)=N/O)=N1)c1cc(OCC2CC2)cc(=O)o1", "measurement unit": "nM", "IC50": 1.4}
{"substance smiles": "CCC[C@@H](NC(=O)[C@]1(C)CSC(/C(C)=N/O)=N1)c1cc(OC)cc(=O)o1", "measurement unit": "nM", "IC50": 22}

The measurements presented in this section are drawn from ChEMBL document CHEMBL5385914.
